- target-desc: Histamine H1 receptor (Homo sapiens)
- Sequence (P35367 whole entry): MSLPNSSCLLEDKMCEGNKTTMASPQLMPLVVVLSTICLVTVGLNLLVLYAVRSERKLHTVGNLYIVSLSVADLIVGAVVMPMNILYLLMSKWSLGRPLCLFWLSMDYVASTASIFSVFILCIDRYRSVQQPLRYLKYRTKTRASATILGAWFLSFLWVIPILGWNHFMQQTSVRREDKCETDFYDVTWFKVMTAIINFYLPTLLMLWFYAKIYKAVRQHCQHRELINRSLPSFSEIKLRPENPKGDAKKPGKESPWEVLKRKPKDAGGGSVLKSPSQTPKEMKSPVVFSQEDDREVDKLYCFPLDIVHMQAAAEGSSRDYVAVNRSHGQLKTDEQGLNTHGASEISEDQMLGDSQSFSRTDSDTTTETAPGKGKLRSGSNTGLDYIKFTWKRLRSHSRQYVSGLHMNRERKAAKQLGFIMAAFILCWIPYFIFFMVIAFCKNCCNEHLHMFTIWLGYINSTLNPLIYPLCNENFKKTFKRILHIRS
- protocol-summary: Binding affinity for human cloned Histamine H1 receptor expressed in CHO cells using [3H]pyrilamine as radioligand
experimental-readout: log10 IC50 (log10 of the value in nM)
Field: value | Transform: log10 | Quantity: IC50 | Unit: nM

Completed entries (count: 6):
INSERT INTO assay_data (compound, meas_value) VALUES
  ('NCC1CC2c3ccccc3Cc3ccccc3N2O1 (stereo unspecified)', 2.30),
  ('c1ccc2c(c1)Cc1ccccc1N1OC(CN3CCCC3)CC21 (stereo unspecified)', 0.48),
  ('CN(C)CC1(C)CC2c3ccccc3Cc3ccccc3N2O1 (stereo in doubt; trans)', 1.79),
  ('CN(C)CCCC1CC2c3ccccc3Cc3ccccc3N2O1 (stereo unspecified)', 2.83),
  ('CCN(CC)CC1CC2c3ccccc3Cc3ccccc3N2O1 (stereo unspecified)', 1.13),
  ('CN(C)CCC1CC2c3ccccc3Cc3ccccc3N2O1 (stereo unspecified)', 1.92);

Next compound, log10 IC50 to be filled in.
c1ccc2c(c1)Cc1ccccc1N1OC(CN3CCOCC3)CC21 (stereo unspecified) has a reported log10 IC50 of 1.42

###

- target-desc: 5-hydroxytryptamine receptor 2C (Rattus norvegicus)
- protocol-summary: In vivo activity in rat mCPP challenge test following p.o. administration.
- Assay type: functional, organism-based
Reported ED50 values follow for various molecules

Clc1cccc(N2CCN(CC3CC4c5ccccc5Cc5ccccc5N4O3)CC2)c1 (centres undefined) has a reported ED50 of > 2.5 mg/kg

O=C1c2ccccc2C(=O)N1CC1CC2c3ccccc3Cc3ccccc3N2O1 (centres undefined) has a reported ED50 of > 2.5 mg/kg

CN(C)CC1(C)CC2c3ccccc3Cc3ccccc3N2O1 (stereo in doubt; trans) has a reported ED50 of > 2.5 mg/kg

CN(C)CC1CC2c3ccccc3Oc3ccc(Cl)cc3N2O1 (centres undefined) has a reported ED50 of > 2.5 mg/kg

c1ccc2c(c1)Cc1ccccc1N1OC(CN3CCNCC3)CC21 (centres undefined) has a reported ED50 of > 2.5 mg/kg

c1ccc2c(c1)Cc1ccccc1N1OC(CN3CCCC3)CC21 (centres undefined) has a reported ED50 of > 2.5 mg/kg

CN(C)CCCCC1CC2c3ccccc3Cc3ccccc3N2O1 (centres undefined) has a reported ED50 of > 2.5 mg/kg

NCC1CC2c3ccccc3Cc3ccccc3N2O1 (centres undefined) has a reported ED50 of > 2.5 mg/kg

CN1CCN2c3ccccc3Cc3ccccc3C2C1 (centres undefined) [MIANSERIN] has a reported ED50 of 2.5 mg/kg

CN(C)CC1(C)CC2c3ccccc3Cc3ccccc3N2O1 (stereo in doubt; cis) has a reported ED50 of > 2.5 mg/kg

CN1CCN(CC2CC3c4ccccc4Cc4ccccc4N3O2)CC1 (centres undefined) has a reported ED50 of > 2.5 mg/kg

CN(C)CCCC1CC2c3ccccc3Cc3ccccc3N2O1 (centres undefined) has a reported ED50 of > 2.5 mg/kg

CNCC1CC2c3ccccc3Cc3ccccc3N2O1 (centres undefined) has a reported ED50 of > 2.5 mg/kg

CN(C)C(=O)C1CC2c3ccccc3Cc3ccccc3N2O1 (centres undefined) has a reported ED50 of > 2.5 mg/kg

CCN(CC)CC1CC2c3ccccc3Cc3ccccc3N2O1 (centres undefined) has a reported ED50 of 2.5 mg/kg

CC(C)N(CC1CC2c3ccccc3Cc3ccccc3N2O1)C(C)C (centres undefined) has a reported ED50 of > 2.5 mg/kg
